test system: L1210 leukemia cells; assay: Anticancer activity in vitro, 3H-thymidine incorporation; type: cell-based, murine; conditions: Mus musculus, 48-h proliferation assay, 3H-thymidine uptake, mean of two experiments

{"columns": ["compound", "IC50"],
 "data": [
  ["O=C(CCCCCN1C(=O)C=CC1=O)Oc1cc2c(c3ccccc13)[C@H](CCl)CN2C(=O)c1cc2cc(NC(=O)c3cc4ccccc4o3)ccc2[nH]1 [(+)-YW-392]", "31 nM"]
]}
